Target Under Test: CDK7/cyclinH/MAT1 trimeric complex (Homo sapiens (Human))
Sequence (P50613 whole entry): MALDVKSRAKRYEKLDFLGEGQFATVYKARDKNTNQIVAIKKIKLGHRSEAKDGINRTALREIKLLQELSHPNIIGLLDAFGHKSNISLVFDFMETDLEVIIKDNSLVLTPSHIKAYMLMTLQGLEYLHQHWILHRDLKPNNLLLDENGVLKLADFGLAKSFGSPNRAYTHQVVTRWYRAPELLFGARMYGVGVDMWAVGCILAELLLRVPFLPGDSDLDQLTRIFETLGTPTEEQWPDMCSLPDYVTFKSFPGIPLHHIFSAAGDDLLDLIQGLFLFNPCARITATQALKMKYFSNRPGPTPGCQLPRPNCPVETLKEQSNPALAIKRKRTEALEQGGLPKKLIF
Sequence (P51946 whole entry partner): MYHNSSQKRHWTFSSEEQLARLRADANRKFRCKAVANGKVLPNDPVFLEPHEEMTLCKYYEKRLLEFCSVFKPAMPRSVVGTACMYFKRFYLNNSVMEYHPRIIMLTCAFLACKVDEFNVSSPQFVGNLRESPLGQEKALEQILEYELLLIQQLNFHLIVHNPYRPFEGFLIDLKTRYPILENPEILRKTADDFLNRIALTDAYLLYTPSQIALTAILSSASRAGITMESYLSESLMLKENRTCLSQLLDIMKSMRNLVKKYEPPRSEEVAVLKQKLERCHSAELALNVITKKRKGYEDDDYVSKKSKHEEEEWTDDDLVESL
Sequence (P51948 whole entry partner): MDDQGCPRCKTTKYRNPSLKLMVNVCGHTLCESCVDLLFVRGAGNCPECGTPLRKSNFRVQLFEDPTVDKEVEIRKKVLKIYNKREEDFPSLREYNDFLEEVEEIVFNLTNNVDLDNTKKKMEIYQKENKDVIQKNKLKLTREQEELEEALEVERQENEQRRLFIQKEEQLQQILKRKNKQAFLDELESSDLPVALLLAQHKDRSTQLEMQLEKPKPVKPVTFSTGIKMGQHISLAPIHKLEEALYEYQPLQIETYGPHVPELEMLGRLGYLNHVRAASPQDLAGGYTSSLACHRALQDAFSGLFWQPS
Assay Protocol: In vitro CDK7 assay, potency of irreversible covalent inhibitors (kinact/KI)
Protocol Conditions: CDK7 (20 nM enz.) (KI, μM), 20 nM enz.
Each entry below lists one item and its recorded Ki value.
Please state the figure in µM; there is no need to write the unit.

Examples with answers:
C=CC(=O)N1CCC(N2CCC(c3cc4c(c(C)n3)OCc3c(ncnc3N3CCS(=O)(=O)CC3)N4)CC2)CC1 :: 0.0715
CC#CC(=O)N1CCN(C2CCN(c3cc(C)c4c(c3)Nc3ncnc(N5CCS(=O)(=O)CC5)c3CO4)CC2)CC1 :: 0.254
C=CC(=O)N1CC(N2CCC(c3cc(F)c4c(c3)Nc3ncnc(N5CCOCC5)c3CO4)CC2)C1 :: 0.0693
C=CC(=O)N1CC(N2CCC(c3cc(F)c4c(c3)Nc3ncnc(-c5cnn(C)c5)c3[C@@H](C)O4)CC2)C1 (single isomer, unassigned) :: 0.0825
C=CC(=O)N1CC(N2CCN(c3cc4c(cn3)OCc3c(ncnc3N3CCOCC3)N4)CC2)C1 :: 3.2
CC#CC(=O)N1CC(N2CCN(c3cc(C)c4c(c3)Nc3ncnc(N5CCS(=O)(=O)CC5)c3[C@@H](C)O4)CC2)C1 :: 0.00172

Next:
Query: Ki; subject: CC#CC(=O)N1CCC(N2CC(c3cc(C)c4c(c3)Nc3ncnc(N5CCS(=O)(=O)CC5)c3CO4)C2)CC1
0.173

----------
Test system: RNA polymerase II Serine 5 phosphorylation in A549 cells overexpressing CDK7 mutant (C312S)
Assay Protocol: Imaging-based cellular RNA PolII Ser5 phosphorylation assay in A549 cells overexpressing CDK7-mutant (C312S)
Type: cell-based, human
Protocol Conditions: Homo sapiens, A549, A549 cells overexpressing CDK7 mutant (C312S); read-out: CDK7_ A549 mutant hCDK7(pIC50) (converted)
Each entry below lists one item and its recorded IC50 value.

C=CC(=O)N1CC(N2CC(c3cc(C)c4c(c3)Nc3ncnc(-c5cnn(C)c5)c3[C@@H](C)O4)C2)C1 (single isomer, unassigned) [compound 109] :: > 10 µM

Query: IC50; subject: CC#CC(=O)N1CC[C@@H](N2CCC(c3cc(C)c4c(c3)Nc3ncnc(N5CCS(=O)(=O)CC5)c3CO4)CC2)C1 (single isomer, unassigned) [compound 135]
> 10 µM

Query: IC50; subject: CC#CC(=O)N1CC(N2C3CCC2CC(c2cc(C)c4c(c2)Nc2ncnc(N5CCS(=O)(=O)CC5)c2[C@@H](C)O4)C3)C1 (mixture of isomers) [compound 182]
6.03 µM

Query: IC50; subject: C=CC(=O)N1CC(N2CCC(c3cc(C)c4c(c3)Nc3ncnc(N5CCC(S(C)(=O)=O)C5)c3CO4)CC2)C1 (stereo not drawn) [compound 65]
> 10 µM

Query: IC50; subject: C=CC(=O)N1CCC(N2CC(c3cc(Cl)c4c(c3)Nc3ncnc(C5CCOCC5)c3CO4)C2)CC1 [compound 19]
> 10 µM

Query: IC50; subject: [2H]C([2H])([2H])C#CC(=O)N1CC(N2CCC(c3cc(C)c4c(c3)Nc3ncnc(N5CCS(=O)(=O)CC5)c3[C@@H](C)O4)CC2)C1 [compound 164]
> 10 µM

Query: IC50; subject: C=CC(=O)N1CC(N2CCC(c3cc(C)c4c(c3)Nc3ncnc(N5CCS(=O)(=O)CC5)c3[C@H](C)O4)CC2)C1 [compound 32]
> 10 µM
